Target: UniProt:P10415
Sequence (P10415 whole entry): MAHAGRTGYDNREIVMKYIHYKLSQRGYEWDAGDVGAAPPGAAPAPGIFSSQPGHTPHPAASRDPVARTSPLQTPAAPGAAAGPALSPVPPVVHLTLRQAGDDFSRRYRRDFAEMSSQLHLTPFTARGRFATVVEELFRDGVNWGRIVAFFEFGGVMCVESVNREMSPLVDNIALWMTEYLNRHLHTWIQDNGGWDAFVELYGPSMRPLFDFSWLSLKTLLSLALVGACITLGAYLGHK
Experiment: Effect on DEVD cleavage by DEVDase assay without anti-Fas antibody using Bcl-2 overexpressing HeLa cells; 3 fold activation concentration (AC3)
Assay type: functional, cell-based
AC3 by entry:
READOUT: AC3

>  <MOLECULE>
COC(=O)NC1[C@H](C)O[C@@H](O[C@H]2C/C=C(\C)[C@@H]3C=C[C@@H]4[C@@H](O)[C@@H](C)C[C@H](C)[C@H]4[C@]3(C)/C(O)=C3\C(=O)O[C@]4(CC(C=O)=C[C@H](O)[C@H]4/C=C\2C)C3=O)CC1(C)[N+](=O)[O-] (stereo partly drawn)

>  <REPORTED>
> 10 µM

$$$$
>  <MOLECULE>
COC(=O)NC1[C@H](C)O[C@@H](O[C@H]2C/C=C(\C)[C@@H]3C=C[C@@H]4[C@@H](OC5(C)O[C@@H]6OC(COC(C)=O)[C@@H](OC(C)=O)C(OC(C)=O)[C@@H]6O5)[C@@H](C)C[C@H](C)[C@H]4[C@]3(C)/C(O)=C3\C(=O)O[C@]4(CC(C=O)=C[C@H](OC(C)=O)[C@H]4/C=C\2C)C3=O)CC1(C)[N+](=O)[O-] (stereo partly drawn)

>  <REPORTED>
> 10 µM

$$$$
>  <MOLECULE>
COC(=O)NC1[C@H](C)O[C@@H](O[C@H]2C/C=C(\C)[C@@H]3C=C[C@@H]4[C@@H](OCc5ccc(OC)cc5)[C@@H](C)C[C@H](C)[C@H]4[C@]3(C)/C(O)=C3\C(=O)O[C@]4(CC(C=O)=C[C@H](OC(C)=O)[C@H]4/C=C\2C)C3=O)CC1(C)[N+](=O)[O-] (stereo partly drawn)

>  <REPORTED>
4.8 µM

$$$$
>  <MOLECULE>
CC[Si](CC)(CC)OO[C@H]1C=CC(O[C@@H]2[C@H]3C=C[C@H]4/C(C)=C/C[C@H](O[C@H]5CC(C)([N+](=O)[O-])C(NC(=O)OC)[C@H](C)O5)/C(C)=C\[C@@H]5[C@@H](OC(C)=O)C=C(C=O)C[C@]56OC(O)=C(C(=O)[C@@]4(C)[C@@H]3[C@@H](C)C[C@@H]2C)C6=O)O[C@H]1C (stereo partly drawn)

>  <REPORTED>
> 10 µM

$$$$
>  <MOLECULE>
COC(=O)NC1[C@H](C)O[C@@H](O[C@H]2C/C=C(\C)[C@@H]3C=C[C@@H]4[C@@H](O)[C@@H](C)C[C@H](C)[C@H]4[C@]3(C)/C(O)=C3\C(=O)O[C@]4(CC(C=O)=C[C@H](O[Si](C)(C)C(C)(C)C)[C@H]4/C=C\2C)C3=O)CC1(C)[N+](=O)[O-] (stereo partly drawn)

>  <REPORTED>
> 10 µM

$$$$
>  <MOLECULE>
COCCOCCOCC(=O)O[C@@H]1[C@H]2C=C[C@H]3/C(C)=C/C[C@H](O[C@H]4CC(C)([N+](=O)[O-])C(NC(=O)OC)[C@H](C)O4)/C(C)=C\[C@@H]4[C@@H](O)C=C(C=O)C[C@]45OC(O)=C(C(=O)[C@@]3(C)[C@@H]2[C@@H](C)C[C@@H]1C)C5=O (stereo partly drawn)

>  <REPORTED>
> 10 µM

$$$$
>  <MOLECULE>
COC(=O)NC1[C@H](C)O[C@@H](O[C@H]2C/C=C(\C)[C@@H]3C=C[C@@H]4[C@@H](O[C@H]5CCCCO5)[C@@H](C)C[C@H](C)[C@H]4[C@]3(C)/C(O)=C3\C(=O)O[C@]4(CC(C=O)=C[C@H](OC(C)=O)[C@H]4/C=C\2C)C3=O)CC1(C)[N+](=O)[O-] (stereo partly drawn)

>  <REPORTED>
4.9 µM

$$$$
>  <MOLECULE>
COC(=O)NC1[C@H](C)O[C@@H](O[C@H]2C/C=C(\C)[C@@H]3C=C[C@@H]4[C@@H](O)[C@@H](C)C[C@H](C)[C@H]4[C@]3(C)/C(O)=C3\C(=O)O[C@]4(CC(C=O)=C[C@H](OC(C)=O)[C@H]4/C=C\2C)C3=O)CC1(C)[N+](=O)[O-] (stereo partly drawn)

>  <REPORTED>
> 10 µM

$$$$
>  <MOLECULE>
COCCOCCOCC(=O)O[C@@H]1[C@H]2C=C[C@H]3/C(C)=C/C[C@H](O[C@H]4CC(C)([N+](=O)[O-])C(NC(=O)OC)[C@H](C)O4)/C(C)=C\[C@@H]4[C@@H](O[Si](C)(C)C(C)(C)C)C=C(C=O)C[C@]45OC(O)=C(C(=O)[C@@]3(C)[C@@H]2[C@@H](C)C[C@@H]1C)C5=O (stereo partly drawn)

>  <REPORTED>
> 10 µM

$$$$
>  <MOLECULE>
COC(=O)NC1[C@H](C)O[C@@H](O[C@H]2C/C=C(\C)[C@@H]3C=C[C@@H]4[C@@H](O[Si](C)(C)C(C)(C)C)[C@@H](C)C[C@H](C)[C@H]4[C@]3(C)/C(O)=C3\C(=O)O[C@]4(CC(C=O)=C[C@H](O[Si](C)(C)C(C)(C)C)[C@H]4/C=C\2C)C3=O)CC1(C)[N+](=O)[O-] (stereo partly drawn)

>  <REPORTED>
> 10 µM

$$$$
>  <MOLECULE>
COC(=O)NC1[C@H](C)O[C@@H](O[C@H]2C/C=C(\C)[C@@H]3C=C[C@@H]4[C@@H](OC5C[C@H](O[C@@H]6CCC(OC7C[C@H](O)[C@@H](OC8CC[C@@H](O)C(C)O8)C(C)O7)[C@H](C)O6)[C@@H](OC(C)=O)C(C)O5)[C@@H](C)C[C@H](C)[C@H]4[C@]3(C)/C(O)=C3\C(=O)O[C@]4(CC(C=O)=CC(O)[C@H]4/C=C\2C)C3=O)CC1(C)[N+](=O)[O-] (stereo partly drawn)

>  <REPORTED>
7.7 µM

$$$$
>  <MOLECULE>
COC(=O)NC1[C@H](C)O[C@@H](O[C@H]2C/C=C(\C)[C@@H]3C=C[C@@H]4[C@@H](OC5C[C@H](O[C@@H]6CCC(OC7C[C@H](O)[C@@H](OC8CC[C@@H](O)C(C)O8)C(C)O7)[C@H](C)O6)[C@@H](OC(C)=O)C(C)O5)[C@@H](C)C[C@H](C)[C@H]4[C@]3(C)C(=O)C3=C(OC)[C@@]4(CC(C=O)=CC(O)[C@H]4/C=C\2C)OC3=O)CC1(C)[N+](=O)[O-] (stereo partly drawn)

>  <REPORTED>
2.5 µM

$$$$
>  <MOLECULE>
COC(=O)NC1[C@H](C)O[C@@H](O[C@H]2C/C=C(\C)[C@@H]3C=C[C@@H]4[C@@H](O[C@@H]5CC(OC(C)=O)C(OC(C)=O)[C@H](C)O5)[C@@H](C)C[C@H](C)[C@H]4[C@]3(C)/C(O)=C3\C(=O)O[C@]4(CC(C=O)=C[C@H](OC(C)=O)[C@H]4/C=C\2C)C3=O)CC1(C)[N+](=O)[O-] (stereo partly drawn)

>  <REPORTED>
> 10 µM

$$$$

---

Molecular target: Apoptosis regulator Bcl-2 (Homo sapiens)
Assay: Effect on DEVD cleavage by DEVDase assay with anti-Fas antibody treatment using Bcl-2 overexpressing HeLa cells; 3 fold activation concentration (AC3)
Assay type: functional, cell-based

>  <COMPOUND>
COC(=O)NC1[C@H](C)O[C@@H](O[C@H]2C/C=C(\C)[C@@H]3C=C[C@@H]4[C@@H](O[Si](C)(C)C(C)(C)C)[C@@H](C)C[C@H](C)[C@H]4[C@]3(C)/C(O)=C3\C(=O)O[C@]4(CC(C=O)=C[C@H](O[Si](C)(C)C(C)(C)C)[C@H]4/C=C\2C)C3=O)CC1(C)[N+](=O)[O-] (some centres not stated)

>  <QUALIFIER>
>

>  <AC3 [µM]>
10

$$$$
>  <COMPOUND>
COC(=O)NC1[C@H](C)O[C@@H](O[C@H]2C/C=C(\C)[C@@H]3C=C[C@@H]4[C@@H](O[C@@H]5CC(OC(C)=O)C(OC(C)=O)[C@H](C)O5)[C@@H](C)C[C@H](C)[C@H]4[C@]3(C)/C(O)=C3\C(=O)O[C@]4(CC(C=O)=C[C@H](OC(C)=O)[C@H]4/C=C\2C)C3=O)CC1(C)[N+](=O)[O-] (some centres not stated)

>  <QUALIFIER>
=

>  <AC3 [µM]>
2.1

$$$$
